Data origin: patent US20240083861A1

- tested.on: Recombinant human HSD17B13 enzyme (Homo sapiens, UniProt Q7Z5P4)
- Sequence (Q7Z5P4 20-300): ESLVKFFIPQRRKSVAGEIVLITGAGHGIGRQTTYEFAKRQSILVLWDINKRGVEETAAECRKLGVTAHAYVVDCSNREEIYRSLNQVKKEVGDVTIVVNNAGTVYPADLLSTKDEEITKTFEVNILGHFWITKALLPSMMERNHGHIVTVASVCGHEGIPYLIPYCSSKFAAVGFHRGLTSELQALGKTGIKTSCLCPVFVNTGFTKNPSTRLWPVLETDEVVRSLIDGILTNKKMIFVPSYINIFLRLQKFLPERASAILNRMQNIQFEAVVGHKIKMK
- assay.info: HSD17b13 NAD(P)H-Glo biochemical assay
- test.settings: 50 uM estradiol, 1 mM NAD+, NAD(P)H-Glo luminescence; read-out: HSD17β13 IC50
Each item that follows carries a reported IC50.

| compound | IC50 |
| --- | --- |
| Cn1nc(-c2cc(C(F)(F)F)c(F)c(O)c2F)c2cnc(N3CCN(S(C)(=O)=O)CC34CC4)cc21 | < 100 nM |
| CN(C)C1CCCN(c2ncc3c(-c4cc(C(F)(F)F)c(F)c(O)c4F)nn(C)c3n2)C1 (stereo not shown) | 100 to 1000 nM |

Note to self: IC50 recorded for "Cn1nc(-c2cc(C(F)(F)F)c(F)c(O)c2F)c2cnc(N3CCC3(C)C)nc21" was 100 to 1000 nM

Note to self: IC50 recorded for "CO[C@H]1C[C@H](NC(=O)c2ccc3oc(-c4cc(C(F)(F)F)c(F)c(O)c4F)nc3c2)C1" was 100 to 1000 nM

Note to self: IC50 recorded for "Cn1nc(-c2cc(C(F)(F)F)c(F)c(O)c2F)c2cnc(N3CCC4(CCO4)CC3)nc21" was < 100 nM

Note to self: IC50 recorded for "O=C(NC1CCC1)c1ccc2oc(-c3cc(O)cc(C(F)(F)F)c3)nc2c1" was 100 to 1000 nM

Note to self: IC50 recorded for "Cn1nc(-c2cc(C(F)(F)F)c(F)c(O)c2F)c2cnc(N3CCC4(CCOCC4)CC3)nc21" was < 100 nM

====

Each item that follows carries a reported IC50.
- tested.on: Recombinant human HSD17B13 enzyme (Homo sapiens, UniProt Q7Z5P4)
- assay.info: HSD17b13 NAD(P)H-Glo biochemical assay
- test.settings: 50 uM estradiol, 1 mM NAD+, NAD(P)H-Glo luminescence; read-out: HSD17β13 IC50

Known results for compounds:
| compound | reading |
| --- | --- |
| COC12CC(CN(c3cc4c(cn3)c(-c3cc(C(F)(F)F)c(F)c(O)c3F)nn4C)C1)C2 | < 100 nM |
| Cn1nc(-c2cc(C(F)(F)F)c(F)c(O)c2F)c2cc(F)c(N3CCN(S(C)(=O)=O)CC34CC4)cc21 | < 100 nM |

Note to self: IC50 recorded for "O=C(NC12CC(C1)C2)c1ccc2oc(-c3cc(O)c(F)c(F)c3)nc2c1" was < 100 nM

Note to self: IC50 recorded for "Cn1nc(-c2cc(C(F)(F)F)c(F)c(O)c2F)c2cnc(N3CC(C)(C)C3)nc21" was < 100 nM

Note to self: IC50 recorded for "COC1CCN(c2nc3c(cc2F)c(-c2cc(C(F)(F)F)c(F)c(O)c2F)nn3C)CC1" was < 100 nM

Note to self: IC50 recorded for "CN(c1cc2c(cn1)c(-c1cc(C(F)(F)F)c(F)c(O)c1F)nn2C)C12CC(C1)C2" was < 100 nM

Note to self: IC50 recorded for "CS(=O)(=O)N1CCN(c2cc3[nH]nc(-c4cc(C(F)(F)F)cc(O)c4F)c3cn2)CC1" was 100 to 1000 nM

Note to self: IC50 recorded for "Cn1nc(-c2cc(C(F)(F)F)c(F)c(O)c2F)c2ncc(N3CCOCC34CC4)cc21" was < 100 nM

Note to self: IC50 recorded for "CO[C@H]1C[C@@H](N(C)c2cc3c(cn2)c(-c2cc(C(F)(F)F)c(F)c(O)c2F)nn3C)C1" was < 100 nM

Note to self: IC50 recorded for "CS(=O)(=O)N1CCN(c2ccc3oc(-c4cc(O)c(F)c(C(F)(F)F)c4)nc3c2)CC1" was < 100 nM
